tested on: HTG22 (DNA, G4) AGGGTTAGGGTTAGGGTTAGGG; assay: SPR, Langmuir kinetic fit; conditions: 100 mM KCl; 50 mM Tris-HCl, pH 7.4, 25 °C; highest concentration 20 μM
quantityMeasured: KD
Returns: string containing the number followed by the unit.

Answered cases to consult:
                                   molecule  quantitymeasured  assayvalue
0  COc1ccc2cc3[n+](cc2c1OCCN)CCc1cc2c(cc1-3)OCO2                KD      133 µM
1  COc1ccc2cc3[n+](cc2c1NCCN1CCCCC1)CCc1cc2c(cc1-3)OCO2                KD     10.8 µM
2  COc1ccc2cc3[n+](cc2c1NCCO)CCc1cc2c(cc1-3)OCO2                KD      680 µM
3  COc1ccc2cc3[n+](cc2c1OCCCNC(=O)C(N)CCCCN)CCc1cc2c(cc1-3)OCO2 (centres unmarked)                KD     7.57 µM

Consider COc1ccc2cc3[n+](cc2c1OC)CCc1cc2c(cc1-3)OCO2 . Its measured KD is 170 µM

Quick note, KD for COc1ccc2cc3[n+](cc2c1OCCCNC(=O)C(N)CCCNC(=N)N)CCc1cc2c(cc1-3)OCO2 (centres unmarked) landed at 10.5 µM

KD for COc1ccc2cc3[n+](cc2c1NCCCN1CCCC1)CCc1cc2c(cc1-3)OCO2 is 29 µM

Recorded KD (molecule COc1ccc2cc3[n+](cc2c1NCCCN1CCCCC1)CCc1cc2c(cc1-3)OCO2 ): 149 µM

Origin of measurements: paper PMC4742130
